Readings of pIC50 for the listed molecules
System: HN5 head and neck tumor cell line
procedure summary: Methylene blue growth inhibition assay, HN5
Type: cell-based
test conditions: Homo sapiens, 72 h; HN5, 3 days; read-out: Cell Proliferation HN5, IC50
pIC50: −log10 of the molar value. Structures can show the parent of a compound that is named as a salt.

Known pIC50 results, listed for orientation:
CS(=O)(=O)CCNCc1ccc(-c2cc3c(Nc4ccc(S(=O)(=O)c5ccccc5)cc4)ncnc3cn2)o1 [Example 3, dihydrochloride] : > 5.30
CS(=O)(=O)CCNCc1ccc(-c2ccc3ncnc(Nc4ccc(OCc5ccccc5)c(F)c4)c3c2)o1 : > 5.30
CS(=O)(=O)CCNCc1ccc(-c2cc3c(Nc4ccc(S(=O)(=O)c5ccccc5)cc4)ncnc3cc2F)o1 : 4.60 to 5.30
CS(=O)(=O)CCNCc1nc(-c2ccc3ncnc(Nc4ccc(OCc5ccccc5)cc4)c3c2)cs1 [Example 7, dihydrochloride] : > 5.30
CS(=O)(=O)CCNCc1nc(-c2ccc3ncnc(Nc4ccc5c(cnn5Cc5cccc(F)c5)c4)c3c2)cs1 : > 5.30
COc1cc(Nc2ncnc3ccc(-c4ccc(CNCCS(C)(=O)=O)o4)cc23)ccc1OCc1cccc(F)c1 : > 5.30
CS(=O)(=O)CCNCc1ccc(-c2ccc3ncnc(Nc4ccc(OCc5cccc(Br)c5)cc4)c3c2)o1 : > 5.30
CS(=O)(=O)CCNCc1ccc(-c2cc3c(Nc4ccc5c(cnn5Cc5ccccc5)c4)ncnc3cc2F)o1 : > 5.30

Quick note, pIC50 for `CS(=O)(=O)CCNCc1nc(-c2ccc3ncnc(Nc4ccc(OCc5cccc(C(F)(F)F)c5)cc4)c3c2)cs1` landed at > 5.30

Quick note, pIC50 for `COc1cc(Nc2ncnc3ccc(-c4csc(CNCCS(C)(=O)=O)n4)cc23)ccc1OCc1cccc(F)c1` landed at 4.60 to 5.30

====

Readings of IC50 for the listed molecules
Test system: HB4a r4.2 (HB4a transfected with human H-ras cDNA)
procedure summary: Methylene blue growth inhibition assay, HB4a ras
Format: cell-based
test conditions: 72 h, HB4a r4.2, 3 days, read-out: Cell Proliferation HB4a ras, IC50

Known IC50 results, listed for orientation:
COc1cc(Nc2ncnc3ccc(-c4csc(CNCCS(C)(=O)=O)n4)cc23)ccc1OCc1cccc(F)c1 [Example 12] : > 50 µM
CS(=O)(=O)CCNCc1ccc(-c2ccc3ncnc(Nc4ccc(OCc5cccc(C(F)(F)F)c5)cc4)c3c2)o1 [Example 17] : 5 to 25 µM
CS(=O)(=O)CCNCc1ccc(-c2ccc3ncnc(Nc4ccc(OCc5cccc(F)c5)c(F)c4)c3c2)o1 [Example 18] : 5 to 25 µM
CS(=O)(=O)CCNCc1nc(-c2ccc3ncnc(Nc4ccc(OCc5ccccc5)c(F)c4)c3c2)cs1 [Example 15] : > 50 µM

Quick note, IC50 for CS(=O)(=O)CCNCc1nc(-c2ccc3ncnc(Nc4ccc(OCc5cccc(F)c5)cc4)c3c2)cs1 [Example 14] landed at > 50 µM

Quick note, IC50 for CS(=O)(=O)CCNCc1ccc(-c2cc3c(Nc4ccc(S(=O)(=O)c5ccccc5)cc4)ncnc3cc2F)o1 [Example 36] landed at > 50 µM

====

Readings of pIC50 for the listed molecules
Tested on: HB4a r4.2 (HB4a transfected with human H-ras cDNA)
procedure summary: Methylene blue growth inhibition assay, HB4a ras
Assay type: cell-based
test conditions: 72 h, HB4a r4.2, 3 days, read-out: Cell Proliferation HB4a ras, IC50
pIC50: −log10 of the molar value. Structures can show the parent of a compound that is named as a salt.

Known pIC50 results, listed for orientation:
CS(=O)(=O)CCNCc1nc(-c2ccc3ncnc(Nc4ccc5c(cnn5Cc5ccccc5)c4)c3c2)cs1 : 4.60 to 5.30
CS(=O)(=O)CCNCc1ccc(-c2ccc3ncnc(Nc4ccc(OCc5cccc(Br)c5)cc4)c3c2)o1 : < 4.30
CS(=O)(=O)CCNCc1ccc(-c2cc3c(Nc4ccc5c(cnn5Cc5ccccc5)c4)ncnc3cc2F)o1 : 4.30 to 4.60
CS(=O)(=O)CCNCc1ccc(-c2cc3c(Nc4ccc(OCc5cccc(F)c5)cc4)ncnc3cn2)o1 [Example 2, dihydrochloride] : 4.30 to 4.60
COc1cc(Nc2ncnc3ccc(-c4ccc(CNCCS(C)(=O)=O)o4)cc23)ccc1OCc1cccc(F)c1 : 4.60 to 5.30

Quick note, pIC50 for `CS(=O)(=O)CCNCc1ccc(-c2ccc3ncnc(Nc4ccc(OCc5cccc(F)c5)cc4)c3c2)o1` landed at 4.60 to 5.30

Quick note, pIC50 for `CS(=O)(=O)CCNCc1ccc(-c2cc3c(Nc4ccc(OCc5ccccc5)cc4)ncnc3cc2F)o1` landed at < 4.30
